- assay-explanation: Clearance of compound in rat after iv administration of 10 mg/kg
- Assay type: ADME, organism-based
- Set-up: dose 10 mg/kg, route intravenous
- assay-setup: in vivo

molecule-smiles: O=c1[nH]c(CCCN2CC=C(c3ccc(F)cc3)CC2)nc2c(Cl)cccc12
units-of-measure: mL/min/kg
clearance: 13.5

====

- assay-explanation: Clearance in human liver microsomes when incubated at 37 degree Celsius in the presence of NADPH-generating system

molecule-smiles: O=c1[nH]c(CCCN2CC=C(c3ccc(F)cc3)CC2)nc2c(Cl)cccc12
CLint scaled, mL/min/kg: 156

====

- assay-explanation: Cmax value in rat after po administration of 10 mg/kg
- Assay type: ADME, organism-based
- Design: dose 10 mg/kg, route oral
- assay-setup: in vivo
value-type: Cmax (ng/mL)

molecule-smiles: O=c1[nH]c(CCCN2CC=C(c3ccc(F)cc3)CC2)nc2c(Cl)cccc12
units-of-measure: ng/mL
readout-value: 1330

====

- assay-explanation: Ratio of brain tissue concentration to that of plasma concentration
- Type: ADME
- assay-setup: mouse, brain / plasma

molecule-smiles: O=c1[nH]c(CCCN2CC=C(c3ccc(F)cc3)CC2)nc2c(Cl)cccc12
Kp: 5.6

molecule-smiles: O=c1[nH]c(CCCN2CC=C(c3ccccc3)CC2)nc2cccc(Cl)c12
Kp: 5.8

molecule-smiles: Cc1nc2cccc(Cl)c2c(=O)[nH]1
Kp: 0.82

molecule-smiles: O=c1[nH]c(=O)n(CCCCN2CC=C(c3ccccc3)CC2)c2cccc(F)c12
Kp: 0.86

====

- assay-explanation: Clearance in mouse liver microsomes when incubated at 37 degree Celsius in the presence of NADPH-generating system
value-type: CLint scaled (mL/min/kg)

molecule-smiles: O=c1[nH]c(CCCN2CC=C(c3ccc(F)cc3)CC2)nc2c(Cl)cccc12
readout-value: 2250

====

Below is a list of entries, each paired with its recorded concentration at 0.5 h value.
- assay-explanation: Concentration in brain tissue was measured at 0.5 hrs in mice following po administration of 32 mg/kg
- Type: ADME, organism-based
- Parameters: dose 32 mg/kg, route oral
- assay-setup: mouse
value-type: concentration at 0.5 h (ng/g)

molecule-smiles: O=c1[nH]c(CCCN2CC=C(c3ccc(F)cc3)CC2)nc2ccccc12
units-of-measure: ng/g
readout-value: 3540

molecule-smiles: COc1cccc2c(=O)[nH]c(CCCN3CC=C(c4ccccc4)CC3)nc12
units-of-measure: ng/g
readout-value: 1150

molecule-smiles: Oc1nc(CCCN2CC=C(c3ccc(-[n+]4ccccc4)cc3)CC2)nc2ccccc12
units-of-measure: ng/g
readout-value: 2760

molecule-smiles: O=c1[nH]c(CCCN2CC=C(c3ccc(C(F)(F)F)cc3)CC2)nc2ccccc12
units-of-measure: ng/g
readout-value: 23400

molecule-smiles: COc1ccc(C2=CCN(CCCc3nc(O)c4ccccc4n3)CC2)cc1
units-of-measure: ng/g
readout-value: 5610

molecule-smiles: Oc1nc(CCCN2CC=C(c3ccccc3)CC2)nc2ccc(Cl)cc12
units-of-measure: ng/g
readout-value: 18600

molecule-smiles: Oc1nc(CCCN2CCN(c3ccccc3)CC2)nc2ccccc12
units-of-measure: ng/g
readout-value: 2850

molecule-smiles: O=c1[nH]c(CCCN2CC=C(c3ccccc3)CC2)nc2cccc(Cl)c12
units-of-measure: ng/g
readout-value: 4600

molecule-smiles: O=c1[nH]c(CCCN2CC=C(c3ccccc3)CC2)nc2ccccc12
units-of-measure: ng/g
readout-value: 1900

molecule-smiles: Oc1nc(CCCN2CCc3c([nH]c4ccccc34)C2)nc2ccccc12
units-of-measure: ng/g
readout-value: 580

molecule-smiles: Oc1nc(CCCN2CC=C(c3ccccc3)CC2)nc2cccc(F)c12
units-of-measure: ng/g
readout-value: 1620

molecule-smiles: Cc1ccc(C2=CCN(CCCc3nc(O)c4ccccc4n3)CC2)cc1
units-of-measure: ng/g
readout-value: 5310

molecule-smiles: Oc1nc(CCCN2CC=C(c3ccccc3)CC2)nc2cc(Cl)ccc12
units-of-measure: ng/g
readout-value: 6120

molecule-smiles: O=c1[nH]c(CCCN2CC=C(c3ccc(Cl)cc3)CC2)nc2ccccc12
units-of-measure: ng/g
readout-value: 23900

molecule-smiles: O=c1[nH]c(CCCN2CC=C(c3ccccc3)CC2)nc2c(Cl)cccc12
units-of-measure: ng/g
readout-value: 7990

molecule-smiles: Cc1cccc2c(=O)[nH]c(CCCN3CC=C(c4ccccc4)CC3)nc12
units-of-measure: ng/g
readout-value: 2540

molecule-smiles: N#Cc1ccc(C2=CCN(CCCc3nc(O)c4ccccc4n3)CC2)cc1
units-of-measure: ng/g
readout-value: 4500

molecule-smiles: O=c1[nH]c(CCCN2CC=C(c3ccc(F)cc3)CC2)nc2c(Cl)cccc12
units-of-measure: ng/g
readout-value: 5600

molecule-smiles: O=c1[nH]c(CCCN2CCC(c3ccccc3)CC2)nc2ccccc12
units-of-measure: ng/g
readout-value: 370

Hey, just so you know, these numbers are from ChEMBL document CHEMBL1137205.
